compounds and their reported ΔTm at 10 µM
- MEASUREMENT TARGET: EPHB1A (Homo sapiens)
- Construct: purchased in-house DSF kinase panel (SGC-style construct names; the trailing letter is the construct ID)
- Sequence (P54762 602-896): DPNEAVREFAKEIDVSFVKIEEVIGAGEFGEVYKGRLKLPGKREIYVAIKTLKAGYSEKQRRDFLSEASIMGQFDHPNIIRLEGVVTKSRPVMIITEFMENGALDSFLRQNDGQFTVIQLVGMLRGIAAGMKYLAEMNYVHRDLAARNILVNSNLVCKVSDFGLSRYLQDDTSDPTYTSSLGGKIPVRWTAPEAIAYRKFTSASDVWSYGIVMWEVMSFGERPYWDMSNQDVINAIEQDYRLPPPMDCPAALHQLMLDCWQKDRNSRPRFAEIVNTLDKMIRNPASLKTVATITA
- TEST DESCRIPTION: DSF Tm panel
- Format: binding
- CONDITION INFO: 10 μM compound
Reply numerically in °C, unit not repeated.

Some solved entries appear below for comparison.
CHEMICAL STRING	MEASUREMENT TARGET	ΔTm at 10 µM (°C)
COc1ccc(CNC(=O)Nc2ccc3cc2OCCOCCNc2ccn4ncc-3c4n2)cc1	EPHB1A (Homo sapiens)	0.4
COc1cccc(CNC(=O)Nc2ccc3cc2OCCOCCNc2ccn4ncc-3c4n2)c1	EPHB1A (Homo sapiens)	0.2
COc1ccccc1CNC(=O)Nc1ccc2cc1OCCOCCNc1ccn3ncc-2c3n1	EPHB1A (Homo sapiens)	0.1
COc1cc(CNC(=O)Nc2ccc3cc2OCCOCCNc2ccn4ncc-3c4n2)ccc1F	EPHB1A (Homo sapiens)	0.5
O=C(NCc1ccc(C(F)(F)F)cc1)Nc1ccc2cc1OCCOCCNc1ccn3ncc-2c3n1	EPHB1A (Homo sapiens)	0.5
COc1ccc(CNC(=O)Nc2ccc3cc2OCCOCCNc2ccn4ncc-3c4n2)cc1F	EPHB1A (Homo sapiens)	0.3
C[C@H](NC(=O)Nc1ccc2cc1OCCOCCNc1ccn3ncc-2c3n1)c1ccccc1	EPHB1A (Homo sapiens)	0.1
Cc1ccc(F)cc1CNC(=O)Nc1ccc2cc1OCCOCCNc1ccn3ncc-2c3n1	EPHB1A (Homo sapiens)	0.3
Cc1cc(Br)ccc1CNC(=O)Nc1ccc2cc1OCCOCCNc1ccn3ncc-2c3n1	EPHB1A (Homo sapiens)	0.2

Okay, next one:
Task: For O=C(NCc1ccccc1C(F)(F)F)Nc1ccc2cc1OCCOCCNc1ccn3ncc-2c3n1 , write its ΔTm at 10 µM.
Output: 0.3
